I'd be grateful if you could share measured viability, T/C for these entries.
test system: ASPS-1 complex tumor spheroids, viability; assay: Anticancer human tumor ASPS-1 cell line growth inhibition; settings: second compound 30 pM; first compound 0.1 µM; active compounds read low;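 also: spheroids exposed to agents for 7 days after 3 days of growth; 100% = DMSO vehicle treated spheroids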
Give bare numbers, in %.

molecule	viability, T/C [%]
CC(C)n1c(=O)n(C)c2cnc3cc(F)c(-c4ccc(OCCCN5CCCCC5)nc4)cc3c21 + COc1cc2c(cc1O)CCNC21CSC2c3c(OC(C)=O)c(C)c4c(c3C(COC1=O)N1C(O)C3Cc5cc(C)c(OC)c(O)c5C(C21)N3C)OCO4	99.5
COc1ccc([C@@H](O)c2cc(-c3ncnc4cc(N5CCOCC5)ccc34)c(F)cc2Cl)nn1 + COc1cc2c(cc1O)CCNC21CSC2c3c(OC(C)=O)c(C)c4c(c3C(COC1=O)N1C(O)C3Cc5cc(C)c(OC)c(O)c5C(C21)N3C)OCO4	106

// each listed molecule needs a value for viability, T/C
1. [2H]c1nc(C)nc([2H])c1-c1cc(NC[C@@H](C)c2cccc3c(C(=O)NC)ccnc23)ncn1 + COc1cc2c(cc1O)CCNC21CSC2c3c(OC(C)=O)c(C)c4c(c3C(COC1=O)N1C(O)C3Cc5cc(C)c(OC)c(O)c5C(C21)N3C)OCO4
2. COc1cc(C)[nH]c(=O)c1CN1CCc2c(Cl)cc(C(OC)C3COC3)c(Cl)c2C1=O (centres undefined) + COc1cc2c(cc1O)CCNC21CSC2c3c(OC(C)=O)c(C)c4c(c3C(COC1=O)N1C(O)C3Cc5cc(C)c(OC)c(O)c5C(C21)N3C)OCO4

Reply |
105
103

These measurements were taken from PubChem BioAssay AID1845200.
